Target or system PARP1 (Homo sapiens): recorded pIC50 listed per item.
pIC50: −log10 of the molar value.

Cc1nc2c(F)cc(-c3nc(Nc4ccc(C(=O)N5CCN(c6ccc(NC(=O)c7cc(Cc8n[nH]c(=O)c9ccccc89)ccc7F)cc6)CC5)cc4)ncc3F)cc2n1C(C)C; < 6.30
Cc1nc2c(F)cc(-c3nc(Nc4ccc(C(=O)Nc5cccc(Cc6n[nH]c(=O)c7ccccc67)c5)cc4)ncc3F)cc2n1C(C)C; < 6.30
Cc1nc2c(F)cc(-c3nc(Nc4cccc(C(=O)N5CCN(C(=O)c6cc(Cc7n[nH]c(=O)c8ccccc78)ccc6F)CC5)c4)ncc3F)cc2n1C(C)C; 7.00 to 8.00
Cc1nc2c(F)cc(-c3nc(Nc4cccc(Cc5n[nH]c(=O)c6ccccc56)c4)ncc3F)cc2n1C(C)C; 6.30 to 7.00
Cc1nc2c(F)cc(-c3nc(Nc4ccc(C(=O)N5CCN(C(=O)c6cc(Cc7n[nH]c(=O)c8ccccc78)ccc6F)CC5)cc4)ncc3F)cc2n1C(C)C; 7.00 to 8.00

Switching to the query record.
(Q) What measured pIC50 is associated with "CN(C)C(=O)c1cc2cnc(Nc3ccc(NC(=O)CNC(=O)c4cc(Cc5n[nH]c(=O)c6ccccc56)ccc4F)cc3)nc2n1C1CCCC1" on PARP1 (Homo sapiens)?
(A) 7.00 to 8.00

* * *

This listing pairs compounds with measured IC50.
- Target: UniProtKB P11802
- Test description: IC50 of dual-target inhibitors against CDK4
- Assay type: biochemical

Cc1nc2c(F)cc(-c3nc(Nc4cccc(C(=O)Nc5cccc(Cc6n[nH]c(=O)c7ccccc67)c5)c4)ncc3F)cc2n1C(C)C [Compound A5]; 0.01 to 0.1 µM
Cc1nc2c(F)cc(-c3nc(Nc4ccc(N5CCN(C(=O)c6cc(Cc7n[nH]c(=O)c8ccccc78)ccc6F)CC5)cc4)ncc3F)cc2n1C(C)C [Compound C5]; < 0.01 µM
CN(C)C(=O)c1cc2nc(NCCNC(=O)[C@H](Cc3ccccc3)NC(=O)c3cc(Cc4n[nH]c(=O)c5ccccc45)ccc3F)ncc2n1C1CCCC1 [Compound E4]; > 0.5 µM

In the following, a different compound is considered.
(Q) Report IC50 for CN(C)C(=O)c1cc2cnc(NNC(=O)c3cc(Cc4n[nH]c(=O)c5ccccc45)ccc3F)nc2n1C1CCCC1 [Compound D1] please.
(A) > 0.5 µM

* * *

Listing of entries alongside the reported IC50.
- Target: PARP1 (Homo sapiens, UniProt P09874)
- Sequence (P09874 whole entry): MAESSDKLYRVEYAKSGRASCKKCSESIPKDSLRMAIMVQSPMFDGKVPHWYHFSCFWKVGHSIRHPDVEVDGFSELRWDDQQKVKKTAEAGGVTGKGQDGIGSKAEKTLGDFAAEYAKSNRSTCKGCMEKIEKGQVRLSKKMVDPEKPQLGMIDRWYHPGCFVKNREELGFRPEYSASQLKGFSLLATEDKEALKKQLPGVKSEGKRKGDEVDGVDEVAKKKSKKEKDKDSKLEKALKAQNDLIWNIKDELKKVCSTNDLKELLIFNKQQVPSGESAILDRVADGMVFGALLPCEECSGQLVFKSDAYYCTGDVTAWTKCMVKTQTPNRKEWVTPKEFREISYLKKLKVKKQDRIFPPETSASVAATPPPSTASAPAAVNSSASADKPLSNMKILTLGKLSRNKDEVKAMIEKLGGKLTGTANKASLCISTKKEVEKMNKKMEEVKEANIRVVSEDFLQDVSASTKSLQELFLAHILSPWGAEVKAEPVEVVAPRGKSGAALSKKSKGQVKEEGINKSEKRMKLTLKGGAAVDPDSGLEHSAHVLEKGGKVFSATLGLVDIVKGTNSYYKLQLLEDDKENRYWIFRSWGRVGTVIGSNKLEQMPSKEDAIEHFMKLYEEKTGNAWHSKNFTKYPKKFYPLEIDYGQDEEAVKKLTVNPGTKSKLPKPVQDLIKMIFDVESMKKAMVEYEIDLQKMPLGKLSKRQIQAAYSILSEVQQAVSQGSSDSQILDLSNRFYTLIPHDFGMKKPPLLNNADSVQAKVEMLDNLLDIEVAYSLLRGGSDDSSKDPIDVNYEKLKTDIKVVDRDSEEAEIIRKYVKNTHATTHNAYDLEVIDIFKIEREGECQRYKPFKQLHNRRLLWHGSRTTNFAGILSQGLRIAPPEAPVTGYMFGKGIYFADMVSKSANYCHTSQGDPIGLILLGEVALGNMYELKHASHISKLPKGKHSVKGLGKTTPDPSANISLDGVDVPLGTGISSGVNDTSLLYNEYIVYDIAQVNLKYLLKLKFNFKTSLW

CN(C)C(=O)c1cc2nc(NCCNC(=O)[C@H](Cc3ccccc3)NC(=O)c3cc(Cc4n[nH]c(=O)c5ccccc45)ccc3F)ncc2n1C1CCCC1 [Compound E4]; 10 to 100 nM
CN(C)C(=O)c1cc2cnc(NNC(=O)c3cc(Cc4n[nH]c(=O)c5ccccc45)ccc3F)nc2n1C1CCCC1 [Compound D1]; 100 to 500 nM
Cc1nc2c(F)cc(-c3nc(Nc4cccc(C(=O)Nc5cccc(Cc6n[nH]c(=O)c7ccccc67)c5)c4)ncc3F)cc2n1C(C)C [Compound A5]; > 500 nM
CN(C)C(=O)c1cc2cnc(N3CCN(C(=O)c4cc(Cc5n[nH]c(=O)c6ccccc56)ccc4F)CC3)nc2n1C1CCCC1 [Compound D9]; < 10 nM

(Q) Need IC50, item Cc1nc2c(F)cc(-c3nc(Nc4ccc(CC(=O)N5CCN(C(=O)c6cc(Cc7n[nH]c(=O)c8ccccc78)ccc6F)CC5)cc4)ncc3F)cc2n1C(C)C [Compound C9]
(A) 10 to 100 nM

(Q) Reported IC50 for CC(C)[C@H](NC(=O)c1cc(Cc2n[nH]c(=O)c3ccccc23)ccc1F)C(=O)NCCNc1ncc2cc(C(=O)N(C)C)n(C3CCCC3)c2n1 [Compound E2] : what is it?
(A) 10 to 100 nM

* * *

Consider the following IC50 values measured on CDK4 (Homo sapiens).
Sequence (P11802 whole entry): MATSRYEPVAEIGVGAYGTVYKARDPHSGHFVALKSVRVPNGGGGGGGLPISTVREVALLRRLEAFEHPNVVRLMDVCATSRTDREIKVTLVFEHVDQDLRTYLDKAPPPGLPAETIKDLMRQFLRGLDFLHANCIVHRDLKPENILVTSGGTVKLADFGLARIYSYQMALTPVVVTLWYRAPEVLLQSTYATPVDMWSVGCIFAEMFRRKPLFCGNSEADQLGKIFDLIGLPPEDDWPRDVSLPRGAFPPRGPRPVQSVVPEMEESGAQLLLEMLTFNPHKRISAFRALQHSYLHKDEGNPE
Sequence (P24385 whole entry partner): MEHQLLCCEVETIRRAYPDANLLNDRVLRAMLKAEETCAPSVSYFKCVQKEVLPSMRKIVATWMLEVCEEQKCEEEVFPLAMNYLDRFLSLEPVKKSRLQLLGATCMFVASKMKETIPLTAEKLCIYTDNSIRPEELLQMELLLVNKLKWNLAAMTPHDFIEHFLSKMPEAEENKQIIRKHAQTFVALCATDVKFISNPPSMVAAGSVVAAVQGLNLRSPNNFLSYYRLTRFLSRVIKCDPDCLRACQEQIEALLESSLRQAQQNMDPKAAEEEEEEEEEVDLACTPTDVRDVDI

Guide cases for IC50, answers given:
Cc1nc2c(F)cc(-c3nc(Nc4ccc(C(=O)Nc5cccc(Cc6n[nH]c(=O)c7ccccc67)c5)cc4)ncc3F)cc2n1C(C)C; < 10 nM
CN(C)C(=O)c1cc2cnc(NCCNC(=O)[C@H](Cc3c[nH]c4ccccc34)NC(=O)c3cc(Cc4n[nH]c(=O)c5ccccc45)ccc3F)nc2n1C1CCCC1; > 500 nM
CN(C)C(=O)c1cc2cnc(NCCNC(=O)CNC(=O)c3cc(Cc4n[nH]c(=O)c5ccccc45)ccc3F)nc2n1C1CCCC1 [Compound E1]; 100 to 500 nM
Cc1nc2c(F)cc(-c3nc(Nc4ccc(NC(=O)c5cc(Cc6n[nH]c(=O)c7ccccc67)ccc5F)cc4)ncc3F)cc2n1C(C)C; 10 to 100 nM
CC(C)[C@H](NC(=O)c1cc(Cc2n[nH]c(=O)c3ccccc23)ccc1F)C(=O)NCCNc1ncc2cc(C(=O)N(C)C)n(C3CCCC3)c2n1 [Compound E2]; 100 to 500 nM

(Q) Field: IC50 (CDK4 (Homo sapiens)). Entry: "Cc1nc2c(F)cc(-c3nc(Nc4ccc(C(=O)N5CCN(c6cccc(NC(=O)c7cc(Cc8n[nH]c(=O)c9ccccc89)ccc7F)c6)CC5)cc4)ncc3F)cc2n1C(C)C"
(A) 10 to 100 nM

* * *

Below are IC50 values recorded for PARP1 (Homo sapiens).

Cc1nc2c(F)cc(-c3nc(Nc4ccc(NC(=O)c5cc(Cc6n[nH]c(=O)c7ccccc67)ccc5F)cc4)ncc3F)cc2n1C(C)C; 100 to 500 nM
CC(C)[C@H](NC(=O)c1cc(Cc2n[nH]c(=O)c3ccccc23)ccc1F)C(=O)NNc1ncc2c(cc(C(=O)N(C)C)n2C2CCCC2)n1; 10 to 100 nM
CN(C)C(=O)c1cc2cnc(NCCNC(=O)CNC(=O)c3cc(Cc4n[nH]c(=O)c5ccccc45)ccc3F)nc2n1C1CCCC1 [Compound E1]; < 10 nM
Cc1nc2c(F)cc(-c3nc(Nc4ccc(NC(=O)CCC(=O)Nc5cccc(Cc6n[nH]c(=O)c7ccccc67)c5)cc4)ncc3F)cc2n1C(C)C; 100 to 500 nM

# evaluate next
(Q) What IC50 value was documented for this compound, "CN(C)C(=O)c1cc2cnc(NCCOC(=O)c3cc(Cc4n[nH]c(=O)c5ccccc45)ccc3F)nc2n1C1CCCC1" ?
(A) 10 to 100 nM
